- testedTarget: GST-AGR2 (on GSH-Sepharose beads) (UniProt O95994 21-175)
- Sequence (O95994 21-175): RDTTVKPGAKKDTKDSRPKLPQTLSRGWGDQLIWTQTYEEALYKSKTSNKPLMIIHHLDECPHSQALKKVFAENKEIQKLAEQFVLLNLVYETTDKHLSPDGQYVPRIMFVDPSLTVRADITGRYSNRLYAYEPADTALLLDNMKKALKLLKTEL
- assaySummary: flow cytometry bead binding; 1x PBS (137 mM NaCl, 2.7 mM KCl, 10 mM Na2HPO4, 2.0 mM KH2PO4), pH 7.4, 37 C, 45 min, 200 uL; K+ varied in Fig 4
- assayContext: protein: recombinant; (pGEX-GST-AGR2); label: 3' FAM; intramolecular parallel G4
quantityMeasured: Kd (nM)
Write the value in nM as a bare number.

I would be grateful if you could share the reported Kd for CGGGTGGGAGTTGTGGGGGGGGGTGGGAGGGTT (structured_DNA) [C14B1] . 19.1

Values were extracted from paper PMC3460915.
